Data origin, for the record: patent US20200247894A1

Molecular target: T1, Human IL2Rγ extracellular domain expressed with a C-terminal mouse IgG2a Fc tag (human)
T1 construct: whole entry is the Fc-fused construct; also called hIL-2Rg-mFc
T1 chain: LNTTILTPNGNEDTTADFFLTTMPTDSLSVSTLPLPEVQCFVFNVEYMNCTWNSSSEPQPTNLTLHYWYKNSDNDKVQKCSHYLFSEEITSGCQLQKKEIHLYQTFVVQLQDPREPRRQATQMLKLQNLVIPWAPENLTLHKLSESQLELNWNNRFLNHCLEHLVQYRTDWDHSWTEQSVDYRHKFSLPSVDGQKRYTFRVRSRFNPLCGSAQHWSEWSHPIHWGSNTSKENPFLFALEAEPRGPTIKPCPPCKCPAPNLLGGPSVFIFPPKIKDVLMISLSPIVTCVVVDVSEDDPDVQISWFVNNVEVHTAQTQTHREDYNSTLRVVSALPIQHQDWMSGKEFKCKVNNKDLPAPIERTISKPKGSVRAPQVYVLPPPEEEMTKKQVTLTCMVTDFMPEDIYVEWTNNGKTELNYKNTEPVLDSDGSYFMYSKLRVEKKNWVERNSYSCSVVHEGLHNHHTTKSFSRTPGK
Test: SPR Biacore 4000, anti-hFc-captured mAb, 25 C
property: t1/2
Output should be the measured figure followed by the unit it is expressed in.

H4H12889P (antibody, human IgG4 S228P, kappa, V domains shown, fully human anti-IL2Rgamma mAb, human IgG4 Fc; also called REGN7257) VH: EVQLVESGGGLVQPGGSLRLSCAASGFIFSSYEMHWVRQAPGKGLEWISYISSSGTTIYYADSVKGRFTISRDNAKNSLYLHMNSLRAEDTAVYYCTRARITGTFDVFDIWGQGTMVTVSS VL: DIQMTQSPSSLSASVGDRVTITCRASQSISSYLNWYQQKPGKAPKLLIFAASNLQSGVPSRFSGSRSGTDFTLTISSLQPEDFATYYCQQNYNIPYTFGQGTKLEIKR    12.4 h
H4H12858P (antibody, human IgG4 S228P, kappa, V domains shown, fully human anti-IL2Rgamma mAb, human IgG4 Fc; also called REGN9433) VH: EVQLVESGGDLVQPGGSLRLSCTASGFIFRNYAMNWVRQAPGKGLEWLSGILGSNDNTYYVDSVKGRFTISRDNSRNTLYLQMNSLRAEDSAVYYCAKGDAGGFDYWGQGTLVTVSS VL: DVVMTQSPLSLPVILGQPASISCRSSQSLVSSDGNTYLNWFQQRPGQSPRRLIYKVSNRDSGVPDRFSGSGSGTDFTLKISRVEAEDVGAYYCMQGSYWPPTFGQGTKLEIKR    1.93 h

Now let's try a different one.
## Task Could you tell me which t1/2 is on file for H4H12874P (antibody, human IgG4 S228P, kappa, V domains shown, fully human anti-IL2Rgamma mAb, human IgG4 Fc) VH: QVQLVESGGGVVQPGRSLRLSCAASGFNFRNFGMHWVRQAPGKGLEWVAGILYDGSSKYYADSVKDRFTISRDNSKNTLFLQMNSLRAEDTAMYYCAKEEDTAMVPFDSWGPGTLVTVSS VL: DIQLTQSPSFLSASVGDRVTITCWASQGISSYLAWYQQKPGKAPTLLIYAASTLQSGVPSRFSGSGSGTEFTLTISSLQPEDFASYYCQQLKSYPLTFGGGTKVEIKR ?
## Result 2.3 h
